Target: 72 kDa type IV collagenase (Homo sapiens, UniProt P08253)
Sequence (P08253 whole entry): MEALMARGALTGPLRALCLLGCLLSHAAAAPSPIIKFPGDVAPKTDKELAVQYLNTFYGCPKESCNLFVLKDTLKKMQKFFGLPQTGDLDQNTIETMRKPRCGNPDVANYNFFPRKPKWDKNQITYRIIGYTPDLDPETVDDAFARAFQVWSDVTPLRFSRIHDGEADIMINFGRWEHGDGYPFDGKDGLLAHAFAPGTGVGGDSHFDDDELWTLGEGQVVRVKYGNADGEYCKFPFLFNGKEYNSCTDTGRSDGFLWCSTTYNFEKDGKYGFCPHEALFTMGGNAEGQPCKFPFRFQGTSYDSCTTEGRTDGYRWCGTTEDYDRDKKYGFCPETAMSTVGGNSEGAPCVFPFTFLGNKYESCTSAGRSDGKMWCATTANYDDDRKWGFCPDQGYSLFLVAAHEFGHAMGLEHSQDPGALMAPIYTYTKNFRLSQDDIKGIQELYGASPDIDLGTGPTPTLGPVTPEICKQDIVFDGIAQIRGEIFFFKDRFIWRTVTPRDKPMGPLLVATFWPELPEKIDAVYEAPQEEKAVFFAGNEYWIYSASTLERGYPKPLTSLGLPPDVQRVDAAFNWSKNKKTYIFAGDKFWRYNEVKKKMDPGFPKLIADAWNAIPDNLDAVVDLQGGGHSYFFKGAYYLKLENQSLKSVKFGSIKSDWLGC
Experiment: Inhibition of recombinant human MMP-2 using peptide substrate by ELISA
pIC50: −log10 of the molar value.
readoutLabel: pIC50

compound	experimentalValue
O=C(NCCCCCCNS(=O)(=O)c1ccc(Oc2ccccc2)cc1)P(=O)(O)O	8.40
NC1CCCCC1NC(=O)P(=O)(O)O (stereo not drawn)	8.40
O=C(NCCCCCNS(=O)(=O)c1ccc(Oc2ccccc2)cc1)P(=O)(O)O	8.40

---

Target: UniProt:P39900
Sequence (P39900 whole entry): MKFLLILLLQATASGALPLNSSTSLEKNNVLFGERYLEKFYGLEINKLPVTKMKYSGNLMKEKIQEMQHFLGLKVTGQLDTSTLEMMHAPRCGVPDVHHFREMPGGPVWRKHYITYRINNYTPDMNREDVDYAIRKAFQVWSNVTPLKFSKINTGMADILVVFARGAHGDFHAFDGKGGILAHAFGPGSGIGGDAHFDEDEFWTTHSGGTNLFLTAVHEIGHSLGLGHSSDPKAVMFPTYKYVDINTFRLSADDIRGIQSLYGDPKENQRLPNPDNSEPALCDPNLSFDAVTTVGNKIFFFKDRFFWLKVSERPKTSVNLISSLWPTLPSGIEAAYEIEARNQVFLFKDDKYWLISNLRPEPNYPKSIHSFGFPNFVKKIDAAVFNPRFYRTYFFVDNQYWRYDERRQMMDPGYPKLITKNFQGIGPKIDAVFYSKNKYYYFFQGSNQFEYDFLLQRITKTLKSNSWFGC
Experiment: Inhibition of MMP-12 (unknown origin)

compound	measuredTarget	IC50 (nM)
CN(C)c1ccc(-c2cn(-c3ccc(S(=O)(=O)C4(C(=O)NO)CCOCC4)cc3)nn2)cc1	UniProt:P39900	4.8
COc1ccc(S(=O)(=O)N(Cc2ccccc2)[C@@H](C(=O)NO)C(C)C)cc1	UniProt:P39900	7.7
O=C(NO)C(Cc1ccccc1)NS(=O)(=O)c1ccc(-c2cn(-c3ccc(-c4ccccc4)cc3)nn2)cc1 (stereo not given)	UniProt:P39900	3.8
COc1ccc(-c2cn(-c3ccc(S(=O)(=O)C4(C(=O)NO)CCOCC4)cc3)nn2)cc1	UniProt:P39900	1.2
O=C(NO)C1(S(=O)(=O)c2ccc(-n3cc(-c4ccc(-c5ccccc5)cc4)nn3)cc2)CCOCC1	UniProt:P39900	3.2
